- system tested: HLA-B*5301 (human)
- method: inhibition of 125I-labelled probe 1021.05 on purified HLA, gel filtration
- condition set: remark: other sources report otherwise
outcome measure: pIC50
Schema: pIC50 number; meaning minus log10 of the concentration expressed in molar units.

Which pIC50 is reported for this binder? YPALMPLYA (modifications not checked) [HBV POL 651 9-mer peptide 1147.08 …]
6.18
